- target.entity: Voltage-gated potassium channel subunit beta-2 (Rattus norvegicus) (UniProt P62483)
- Sequence (P62483 whole entry, looked up): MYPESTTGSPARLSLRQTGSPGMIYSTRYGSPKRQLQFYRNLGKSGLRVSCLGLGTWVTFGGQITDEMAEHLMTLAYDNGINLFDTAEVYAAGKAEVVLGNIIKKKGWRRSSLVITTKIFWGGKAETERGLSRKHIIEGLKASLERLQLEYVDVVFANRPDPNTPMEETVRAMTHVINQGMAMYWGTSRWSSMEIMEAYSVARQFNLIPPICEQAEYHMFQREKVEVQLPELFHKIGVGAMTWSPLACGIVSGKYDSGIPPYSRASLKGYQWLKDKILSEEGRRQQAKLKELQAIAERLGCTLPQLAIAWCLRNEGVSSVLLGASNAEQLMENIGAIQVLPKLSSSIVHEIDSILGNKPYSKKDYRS
- assay.overview: inhibitors of rat Kvbeta2 reductase activity – biochemical, NADPH fluorescence, primary screen (AID 622);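 further: slope of raw intensity against log time taken from 70 to 1610 s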
- test.context: recombinant KvBeta, 4-cyanobenzaldehyde reduction, at 10 µM, stronger effect = higher value
I'd be grateful if you could share measured fluorescence slope for these entries.
Answers are plain numbers.

molecule	target.entity	measurement
CC(NO)C(C)(C)NO (stereo unspecified)	Voltage-gated potassium channel subunit beta-2 (Rattus norvegicus) (UniProt P62483)	-0.493
N#Cc1c(/N=C/c2ccco2)sc2c1CCC2	Voltage-gated potassium channel subunit beta-2 (Rattus norvegicus) (UniProt P62483)	-0.507
Cc1cc2c(c(=O)o1)C(C13C=CC(CC1)C3)C(C#N)=C(N)O2 (stereo unspecified)	Voltage-gated potassium channel subunit beta-2 (Rattus norvegicus) (UniProt P62483)	-0.499

The following molecules each have a reported value; give each one's fluorescence slope.
1. Cc1cnc(NC(=O)CSc2nnc(-c3ccccc3)n2Cc2ccccc2)s1
2. CCOC(=O)C1=C(C)N(C)C(C)=C(C(=O)OCC)C1c1cccnc1
3. CCCOc1ccc(C2C(C(=O)c3ccc(C)o3)=C(O)C(=O)N2Cc2cccnc2)cc1 (stereo unspecified)

1: -0.493; 2: -0.5; 3: -0.495

----------
- target.entity: Muscarinic acetylcholine receptor M4 (Homo sapiens) (UniProt P08173)
- Sequence (P08173 whole entry, looked up): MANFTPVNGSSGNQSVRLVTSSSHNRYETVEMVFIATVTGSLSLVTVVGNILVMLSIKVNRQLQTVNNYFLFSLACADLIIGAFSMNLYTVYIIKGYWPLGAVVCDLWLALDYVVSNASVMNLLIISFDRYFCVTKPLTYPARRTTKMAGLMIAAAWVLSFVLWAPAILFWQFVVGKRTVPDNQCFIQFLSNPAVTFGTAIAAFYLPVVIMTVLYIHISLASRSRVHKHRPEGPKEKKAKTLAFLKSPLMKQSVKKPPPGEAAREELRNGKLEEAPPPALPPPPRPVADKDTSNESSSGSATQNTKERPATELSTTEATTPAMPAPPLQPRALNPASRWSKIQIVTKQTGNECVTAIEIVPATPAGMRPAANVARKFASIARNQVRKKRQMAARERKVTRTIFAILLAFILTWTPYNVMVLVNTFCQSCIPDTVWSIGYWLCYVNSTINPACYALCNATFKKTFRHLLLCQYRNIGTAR
- assay.overview: M4-linked GIRK flux change, two-sided – cell-based, HEK293 M4/GIRK, thallium flux, BTC-AM, M4 allosteric agonist project, primary screen (AID 625);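 further: thallium influx through GIRK channels coupled to M4 in HEK293 cells with BTC-AM dye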
- test.context: at 10 µM, actives lie on both sides
readout.type: fluorescence slope
One number for each entry.

# annotated cases, reported fluorescence slope shown
compound	fluorescence slope
CC(=O)N1C(=O)C2(Nc3ccccc3N2)c2ccccc21	0.00603
COCCCNC(=O)C(Cc1ccccc1)NS(=O)(=O)c1ccc2c(c1)c(=O)n(C)c(=O)n2C (stereo not given)	0.00611
COC(=O)c1ccccc1NC(=O)c1noc2c1CCC2	0.0051
COc1ccc(OC)c(Nc2cc(-c3ccccc3)nc(N)n2)c1	0.00508

The following compounds each have a reported value; give each one's fluorescence slope.
1. O=C(CN1CCOCC1)Nc1cccc(C(=O)Nc2cccc(C(F)(F)F)c2)c1
2. CCOC(=O)CSc1nc2cc(C(=O)NCc3ccco3)ccc2c(=O)n1C1CCCCC1
3. Cc1ccc(-c2cc(C(=O)NCc3ccc4c(c3)OCO4)no2)cc1
4. O=C(O)CCCC(=O)NCCc1ccncc1

0.0065
0.00847
0.00532
0.00581

The following compounds each have a reported value; give each one's fluorescence slope.
1. CCCCN(CCCC)CCCNC(=O)CC1Oc2ccc(C)cc2NC1=O (stereo not given)
2. OCCn1c(CSc2nnc(-c3ccco3)n2-c2ccccc2)nc2ccc(Cl)cc21
3. O=C(C1CCN(S(=O)(=O)c2cccnc2)CC1)N1CCN(c2ccc(Cl)cc2)CC1
4. COc1ccc(CN2CC(C(=O)NCCCOC(C)C)CC2=O)cc1 (stereo not given)
5. CC1CCCC(NC(=O)CSc2ncccc2C(=O)O)C1C (stereo not given)
6. CCC(=O)N1CCc2cc(S(=O)(=O)CCC(=O)Nc3ccc(C)c(F)c3)ccc21

1: 0.00528; 2: 0.00847; 3: 0.00572; 4: 0.00604; 5: 0.00597; 6: 0.00659

The following compounds each have a reported value; give each one's fluorescence slope.
1. CCCc1cc(-c2n[nH]c(C)c2-c2ccc(C(=O)OCC)o2)c(O)cc1O
2. CCOC(=O)Nc1ccc2c(c1)N(C(=O)CN(CC)CC)c1ccccc1C=C2
3. O=C(CCSc1ccccc1)N1CCOCC1
4. CS(=O)(=O)N(CC(=O)NC1CC1)c1cccc(F)c1
5. N#Cc1c(N2C(=O)C3C4C=CC(C4)C3C2=O)sc2c1CCC2 (stereo not given)
6. CCCN(CCC)c1nc2ccccc2n2c(C)nnc12
7. CCCCN(c1ccccc1)S(=O)(=O)c1ccc2c(c1)CCN2C(=O)CCC(=O)O

0.00514
0.00312
0.00456
0.00595
0.00524
0.00414
0.00543

The following compounds each have a reported value; give each one's fluorescence slope.
1. CCn1c(SC)nc2c(c1=O)SC(C)C2 (stereo not given)
2. Cc1cc(Nc2ccccc2)n(CCC#N)n1
3. C/C(=C(\C#N)C(=O)NCCCN1CCOCC1)N(C)C

1: 0.00648; 2: 0.00613; 3: 0.0035
